- measured_target: ROCK2 (Homo sapiens, UniProt O75116)
- Construct: purchased Life Technologies PV 3759
- Sequence (O75116 whole entry): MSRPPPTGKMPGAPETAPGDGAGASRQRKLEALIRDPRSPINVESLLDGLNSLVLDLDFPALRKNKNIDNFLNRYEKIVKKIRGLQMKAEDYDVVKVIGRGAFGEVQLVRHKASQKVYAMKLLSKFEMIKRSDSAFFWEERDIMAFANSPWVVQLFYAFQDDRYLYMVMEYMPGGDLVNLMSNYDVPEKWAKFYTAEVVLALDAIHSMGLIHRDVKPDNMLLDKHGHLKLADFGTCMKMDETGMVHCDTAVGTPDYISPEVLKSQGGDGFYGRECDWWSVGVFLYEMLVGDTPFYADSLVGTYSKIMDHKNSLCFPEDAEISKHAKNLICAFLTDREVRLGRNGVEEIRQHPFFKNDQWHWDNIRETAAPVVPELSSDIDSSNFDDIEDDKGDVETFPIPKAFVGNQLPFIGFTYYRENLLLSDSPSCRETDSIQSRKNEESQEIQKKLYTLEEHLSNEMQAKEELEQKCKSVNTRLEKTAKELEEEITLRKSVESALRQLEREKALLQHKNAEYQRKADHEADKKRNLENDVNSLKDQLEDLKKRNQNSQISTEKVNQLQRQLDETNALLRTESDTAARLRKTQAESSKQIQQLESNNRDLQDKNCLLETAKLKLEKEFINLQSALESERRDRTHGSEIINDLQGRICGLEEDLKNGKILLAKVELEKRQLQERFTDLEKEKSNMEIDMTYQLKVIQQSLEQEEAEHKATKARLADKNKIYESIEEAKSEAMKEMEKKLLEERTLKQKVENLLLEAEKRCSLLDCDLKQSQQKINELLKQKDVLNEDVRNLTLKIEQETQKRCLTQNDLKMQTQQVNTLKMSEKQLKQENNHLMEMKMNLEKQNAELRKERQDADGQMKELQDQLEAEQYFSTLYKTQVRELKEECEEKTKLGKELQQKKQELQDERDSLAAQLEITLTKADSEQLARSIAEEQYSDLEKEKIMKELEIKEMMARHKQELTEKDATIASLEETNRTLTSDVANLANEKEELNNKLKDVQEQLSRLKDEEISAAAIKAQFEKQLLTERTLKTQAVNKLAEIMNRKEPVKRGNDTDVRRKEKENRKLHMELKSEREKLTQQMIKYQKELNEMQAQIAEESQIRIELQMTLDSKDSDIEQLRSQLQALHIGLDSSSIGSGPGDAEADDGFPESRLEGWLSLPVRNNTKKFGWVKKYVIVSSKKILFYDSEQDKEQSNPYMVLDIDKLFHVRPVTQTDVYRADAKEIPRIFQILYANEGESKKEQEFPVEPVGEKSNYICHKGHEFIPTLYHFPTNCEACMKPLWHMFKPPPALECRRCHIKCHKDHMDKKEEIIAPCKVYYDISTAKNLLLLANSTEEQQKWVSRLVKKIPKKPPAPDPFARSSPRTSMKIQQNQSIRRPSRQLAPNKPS
- assay_comment: Z'-LYTE kinase selectivity assay ROCK2
- Format: biochemical
endpoint: inhibition at 1 µM (%)
// return numeric value only (unit: %, not printed)

Enquiry: Look up inhibition at 1 µM of C[C@@H]1Cc2nn(C)c(-c3ccccc3)c2-c2nc(Nc3ccn(CCN4CCOCC4)n3)ncc21 [Compound I-2] and report it.
Return: 6

Enquiry: Look up inhibition at 1 µM of C[C@@H]1Cc2nn(C)c(-c3ccccc3)c2-c2nc(Nc3ccn(CCN4CCN(CC5CCCO5)CC4)n3)ncc21 (stereo partly drawn) [Compound I-9] and report it.
Return: 3

Enquiry: Look up inhibition at 1 µM of C[C@@H]1Cc2nn(C)c(-c3ccccc3)c2-c2nc(Nc3ccn(CCN4CCN(CC(C)(C)O)CC4)n3)ncc21 [Compound I-3] and report it.
Return: 7

###

- measured_target: GSK3B (GSK3 beta) (Homo sapiens)
- Construct: purchased Life Technologies PV 3365
- Sequence (P49841 whole entry): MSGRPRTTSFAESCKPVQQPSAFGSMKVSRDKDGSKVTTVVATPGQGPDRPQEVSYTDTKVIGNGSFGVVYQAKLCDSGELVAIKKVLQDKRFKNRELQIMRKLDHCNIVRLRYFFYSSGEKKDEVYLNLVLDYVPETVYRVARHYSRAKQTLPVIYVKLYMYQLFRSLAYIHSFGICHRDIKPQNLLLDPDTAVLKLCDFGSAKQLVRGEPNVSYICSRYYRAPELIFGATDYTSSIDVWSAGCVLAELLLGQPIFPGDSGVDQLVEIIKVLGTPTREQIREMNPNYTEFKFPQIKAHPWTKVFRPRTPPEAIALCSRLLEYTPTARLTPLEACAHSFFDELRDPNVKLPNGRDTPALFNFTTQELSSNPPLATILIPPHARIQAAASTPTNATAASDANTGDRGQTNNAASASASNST
- assay_comment: Z'-LYTE kinase selectivity assay GSK3B
- Type: biochemical
endpoint: inhibition at 1 µM (%)
// return numeric value only (unit: %, not printed)

Enquiry: Output reported inhibition at 1 µM of the compound COCCN1CCN(CCn2ccc(Nc3ncc4c(n3)-c3c(nn(C)c3-c3ccccc3)C[C@H]4C)n2)CC1 on GSK3B (GSK3 beta) (Homo sapiens).
Return: 8

Enquiry: Output reported inhibition at 1 µM of the compound C[C@@H]1Cc2nn(C)c(-c3ccccc3)c2-c2nc(Nc3ccn(CCN4CCOCC4)n3)ncc21 on GSK3B (GSK3 beta) (Homo sapiens).
Return: 10

Enquiry: Output reported inhibition at 1 µM of the compound CC(O)CN1CCN(CCn2ccc(Nc3ncc4c(n3)-c3c(nn(C)c3-c3ccccc3)C[C@H]4C)n2)CC1 (stereo partly shown) on GSK3B (GSK3 beta) (Homo sapiens).
Return: 10

Enquiry: Output reported inhibition at 1 µM of the compound C[C@@H]1Cc2nn(C)c(-c3ccccc3)c2-c2nc(Nc3ccn(CCN4CCN(C)CC4)n3)ncc21 on GSK3B (GSK3 beta) (Homo sapiens).
Return: 14

Enquiry: Output reported inhibition at 1 µM of the compound C[C@@H]1Cc2nn(C)c(-c3ccccc3)c2-c2nc(Nc3ccn(CCN4CCN(CC(C)(C)O)CC4)n3)ncc21 on GSK3B (GSK3 beta) (Homo sapiens).
Return: 9

Enquiry: Output reported inhibition at 1 µM of the compound C[C@@H]1Cc2nn(C)c(-c3ccccc3)c2-c2nc(Nc3ccn(CCN4CCN(CC(=O)OC5CCOCC5)CC4)n3)ncc21 on GSK3B (GSK3 beta) (Homo sapiens).
Return: 14

Enquiry: Output reported inhibition at 1 µM of the compound C[C@@H]1Cc2nn(C)c(-c3ccccc3)c2-c2nc(Nc3ccn(CCN4CCN(CC5CCCO5)CC4)n3)ncc21 (stereo partly shown) on GSK3B (GSK3 beta) (Homo sapiens).
Return: 9

###

- measured_target: CSNK2A1 (CK2 alpha 1) (Homo sapiens, UniProt P68400)
- Construct: purchased Life Technologies PV 3248
- Sequence (P68400 whole entry): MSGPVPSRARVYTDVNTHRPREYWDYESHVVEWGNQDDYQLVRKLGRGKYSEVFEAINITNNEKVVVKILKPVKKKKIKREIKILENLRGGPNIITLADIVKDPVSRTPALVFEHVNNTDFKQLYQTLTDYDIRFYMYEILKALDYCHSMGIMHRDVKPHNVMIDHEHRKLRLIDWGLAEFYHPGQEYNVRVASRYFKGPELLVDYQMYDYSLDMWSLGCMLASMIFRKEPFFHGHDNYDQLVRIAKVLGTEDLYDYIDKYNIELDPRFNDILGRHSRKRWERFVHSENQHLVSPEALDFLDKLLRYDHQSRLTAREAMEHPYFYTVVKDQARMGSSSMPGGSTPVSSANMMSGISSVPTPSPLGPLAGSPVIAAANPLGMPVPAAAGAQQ
- assay_comment: Z'-LYTE kinase selectivity assay CSNK2A1
- Type: biochemical
endpoint: inhibition at 1 µM (%)
// return numeric value only (unit: %, not printed)

Enquiry: Look up inhibition at 1 µM of CC(O)CN1CCN(CCn2ccc(Nc3ncc4c(n3)-c3c(nn(C)c3-c3ccccc3)C[C@H]4C)n2)CC1 (stereo partly shown) and report it.
Return: 8

Enquiry: Look up inhibition at 1 µM of COCCN1CCN(CCn2ccc(Nc3ncc4c(n3)-c3c(nn(C)c3-c3ccccc3)C[C@H]4C)n2)CC1 and report it.
Return: 2

Enquiry: Look up inhibition at 1 µM of C[C@@H]1Cc2nn(C)c(-c3ccccc3)c2-c2nc(Nc3ccn(CCN4CCOCC4)n3)ncc21 and report it.
Return: 10

Enquiry: Look up inhibition at 1 µM of C[C@@H]1Cc2nn(C)c(-c3ccccc3)c2-c2nc(Nc3ccn(CCN4CCN(CC(=O)OC5CCOCC5)CC4)n3)ncc21 and report it.
Return: 7

Enquiry: Look up inhibition at 1 µM of C[C@@H]1Cc2nn(C)c(-c3ccccc3)c2-c2nc(Nc3ccn(CCN4CCN(CC(C)(C)O)CC4)n3)ncc21 and report it.
Return: 3

Enquiry: Look up inhibition at 1 µM of C[C@@H]1Cc2nn(C)c(-c3ccccc3)c2-c2nc(Nc3ccn(CCN4CCN(CC5CCCO5)CC4)n3)ncc21 (stereo partly shown) and report it.
Return: 1

Enquiry: Look up inhibition at 1 µM of C[C@@H]1Cc2nn(C)c(-c3ccccc3)c2-c2nc(Nc3ccn(CCN4CCN(C)CC4)n3)ncc21 and report it.
Return: 4

###

Provide the recorded inhibition at 1 µM for the entries that follow.
- measured_target: STK6 (AURKA (Aurora A)) (Homo sapiens, UniProt O14965)
- Construct: purchased Life Technologies PV 3612
- Sequence (O14965 whole entry): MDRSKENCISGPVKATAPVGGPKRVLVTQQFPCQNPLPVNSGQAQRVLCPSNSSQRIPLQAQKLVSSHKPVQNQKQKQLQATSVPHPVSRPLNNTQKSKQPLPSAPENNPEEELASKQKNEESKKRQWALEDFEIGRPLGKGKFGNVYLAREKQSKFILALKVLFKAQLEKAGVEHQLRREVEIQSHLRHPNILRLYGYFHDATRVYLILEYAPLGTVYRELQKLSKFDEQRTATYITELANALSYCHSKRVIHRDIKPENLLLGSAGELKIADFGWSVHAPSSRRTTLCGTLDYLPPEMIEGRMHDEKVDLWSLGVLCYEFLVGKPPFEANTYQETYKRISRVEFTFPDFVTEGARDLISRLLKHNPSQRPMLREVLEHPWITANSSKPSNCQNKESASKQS
- assay_comment: Z'-LYTE kinase selectivity assay STK6
- Assay type: biochemical
- test_settings: read-out: STK6 (Aur A) % inhibition
// return numeric value only (unit: %, not printed)

Enquiry: Output reported inhibition at 1 µM of the molecule C[C@@H]1Cc2nn(C)c(-c3ccccc3)c2-c2nc(Nc3ccn(CCN4CCN(CC(C)(C)O)CC4)n3)ncc21 [Compound I-3] on STK6 (AURKA (Aurora A)) (Homo sapiens, UniProt O14965).
Return: 14

Enquiry: Output reported inhibition at 1 µM of the molecule C[C@@H]1Cc2nn(C)c(-c3ccccc3)c2-c2nc(Nc3ccn(CCN4CCN(CC(=O)OC5CCOCC5)CC4)n3)ncc21 [Compound I-8] on STK6 (AURKA (Aurora A)) (Homo sapiens, UniProt O14965).
Return: 6

Enquiry: Output reported inhibition at 1 µM of the molecule C[C@@H]1Cc2nn(C)c(-c3ccccc3)c2-c2nc(Nc3ccn(CCN4CCOCC4)n3)ncc21 [Compound I-2] on STK6 (AURKA (Aurora A)) (Homo sapiens, UniProt O14965).
Return: 12

Enquiry: Output reported inhibition at 1 µM of the molecule C[C@@H]1Cc2nn(C)c(-c3ccccc3)c2-c2nc(Nc3ccn(CCN4CCN(CC5CCCO5)CC4)n3)ncc21 (stereo partly shown) [Compound I-9] on STK6 (AURKA (Aurora A)) (Homo sapiens, UniProt O14965).
Return: 10

Enquiry: Output reported inhibition at 1 µM of the molecule C[C@@H]1Cc2nn(C)c(-c3ccccc3)c2-c2nc(Nc3ccn(CCN4CCN(C)CC4)n3)ncc21 [Compound I-1] on STK6 (AURKA (Aurora A)) (Homo sapiens, UniProt O14965).
Return: -15

Enquiry: Output reported inhibition at 1 µM of the molecule CC(O)CN1CCN(CCn2ccc(Nc3ncc4c(n3)-c3c(nn(C)c3-c3ccccc3)C[C@H]4C)n2)CC1 (stereo partly shown) [Compound I-7] on STK6 (AURKA (Aurora A)) (Homo sapiens, UniProt O14965).
Return: 5

Enquiry: Output reported inhibition at 1 µM of the molecule COCCN1CCN(CCn2ccc(Nc3ncc4c(n3)-c3c(nn(C)c3-c3ccccc3)C[C@H]4C)n2)CC1 [Compound I-11] on STK6 (AURKA (Aurora A)) (Homo sapiens, UniProt O14965).
Return: -12

###

- measured_target: LCK (Homo sapiens)
- Construct: purchased Life Technologies P 3043
- Sequence (P06239 whole entry): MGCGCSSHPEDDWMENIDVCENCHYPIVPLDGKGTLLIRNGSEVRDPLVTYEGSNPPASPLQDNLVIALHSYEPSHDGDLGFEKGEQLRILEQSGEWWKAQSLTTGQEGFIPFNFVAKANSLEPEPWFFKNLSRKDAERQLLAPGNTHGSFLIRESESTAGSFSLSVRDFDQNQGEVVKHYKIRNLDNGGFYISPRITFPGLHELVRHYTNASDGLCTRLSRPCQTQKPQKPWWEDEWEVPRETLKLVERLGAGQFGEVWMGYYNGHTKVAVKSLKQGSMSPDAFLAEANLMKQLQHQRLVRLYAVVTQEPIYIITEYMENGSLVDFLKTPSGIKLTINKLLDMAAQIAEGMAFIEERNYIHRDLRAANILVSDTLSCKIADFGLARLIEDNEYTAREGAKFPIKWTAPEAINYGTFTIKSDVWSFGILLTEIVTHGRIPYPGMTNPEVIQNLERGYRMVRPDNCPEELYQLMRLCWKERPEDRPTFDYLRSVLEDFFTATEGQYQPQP
- assay_comment: Z'-LYTE kinase selectivity assay LCK
- Format: biochemical
endpoint: inhibition at 1 µM (%)
// return numeric value only (unit: %, not printed)

Enquiry: Look up inhibition at 1 µM of C[C@@H]1Cc2nn(C)c(-c3ccccc3)c2-c2nc(Nc3ccn(CCN4CCOCC4)n3)ncc21 and report it.
Return: 78

Enquiry: Look up inhibition at 1 µM of C[C@@H]1Cc2nn(C)c(-c3ccccc3)c2-c2nc(Nc3ccn(CCN4CCN(CC(C)(C)O)CC4)n3)ncc21 and report it.
Return: 82

Enquiry: Look up inhibition at 1 µM of CC(O)CN1CCN(CCn2ccc(Nc3ncc4c(n3)-c3c(nn(C)c3-c3ccccc3)C[C@H]4C)n2)CC1 (stereo partly shown) and report it.
Return: 84

Enquiry: Look up inhibition at 1 µM of COCCN1CCN(CCn2ccc(Nc3ncc4c(n3)-c3c(nn(C)c3-c3ccccc3)C[C@H]4C)n2)CC1 and report it.
Return: 76

###

- measured_target: CDK2/cyclin A (Homo sapiens)
- Construct: purchased Life Technologies PV 3267
- assay_comment: Z'-LYTE kinase selectivity assay CDK2/cyclin A
- Format: biochemical
- test_settings: read-out: CDK2/CYCLINA % inhibition
Provide the recorded inhibition at 1 µM for the entries that follow.

Enquiry: Look up inhibition at 1 µM of COCCN1CCN(CCn2ccc(Nc3ncc4c(n3)-c3c(nn(C)c3-c3ccccc3)C[C@H]4C)n2)CC1 and report it.
Return: 53%

Enquiry: Look up inhibition at 1 µM of CC(O)CN1CCN(CCn2ccc(Nc3ncc4c(n3)-c3c(nn(C)c3-c3ccccc3)C[C@H]4C)n2)CC1 (stereo partly shown) and report it.
Return: 74%

Enquiry: Look up inhibition at 1 µM of C[C@@H]1Cc2nn(C)c(-c3ccccc3)c2-c2nc(Nc3ccn(CCN4CCN(CC5CCCO5)CC4)n3)ncc21 (stereo partly shown) and report it.
Return: 63%

Enquiry: Look up inhibition at 1 µM of C[C@@H]1Cc2nn(C)c(-c3ccccc3)c2-c2nc(Nc3ccn(CCN4CCN(CC(=O)OC5CCOCC5)CC4)n3)ncc21 and report it.
Return: 49%

Enquiry: Look up inhibition at 1 µM of C[C@@H]1Cc2nn(C)c(-c3ccccc3)c2-c2nc(Nc3ccn(CCN4CCN(C)CC4)n3)ncc21 and report it.
Return: 72%

Enquiry: Look up inhibition at 1 µM of C[C@@H]1Cc2nn(C)c(-c3ccccc3)c2-c2nc(Nc3ccn(CCN4CCOCC4)n3)ncc21 and report it.
Return: 56%

Enquiry: Look up inhibition at 1 µM of C[C@@H]1Cc2nn(C)c(-c3ccccc3)c2-c2nc(Nc3ccn(CCN4CCN(CC(C)(C)O)CC4)n3)ncc21 and report it.
Return: 66%
